meta.source: patent US20020002294A1

So I've got a bunch of compounds here, and I need their pIC50 values.
# System: tubulin
# assay-text: inhibition of tubulin polymerization in vitro (turbidity at 350 nm)
# Type: biochemical
# condition-notes: read-out: IC50 (concentration required to inhibit tubulin polymerization by 50%); mean ± S.D.; method of Example 1
Numbers only, as −log10 of the molar value.

- compound: "COc1cc2c(cc1O)CCC1C2CCC2(C)C(=O)CCC12 (stereo not shown) [2-Methoxyestrone, reference compound]"
  pIC50: 5.06
- compound: "COc1ccc(CCc2cc(OC)c(OC)c(OC)c2)cc1O [Dihydrocombretastatin A-4]"
  pIC50: 6.20

Inquiry: Given the entry CC12CCC3c4cc(F)c(O)cc4CCC3C1CCC2O (stereo not shown) , report its measured pIC50.
Reply text: 4.57

---

# test-system: rat uterine cytosolic estrogen receptor (Rattus norvegicus, UniProt P06211)
# Construct: from tissue; host or cells: rat uterine cytosol (per the result head)
# Sequence (P06211 whole entry): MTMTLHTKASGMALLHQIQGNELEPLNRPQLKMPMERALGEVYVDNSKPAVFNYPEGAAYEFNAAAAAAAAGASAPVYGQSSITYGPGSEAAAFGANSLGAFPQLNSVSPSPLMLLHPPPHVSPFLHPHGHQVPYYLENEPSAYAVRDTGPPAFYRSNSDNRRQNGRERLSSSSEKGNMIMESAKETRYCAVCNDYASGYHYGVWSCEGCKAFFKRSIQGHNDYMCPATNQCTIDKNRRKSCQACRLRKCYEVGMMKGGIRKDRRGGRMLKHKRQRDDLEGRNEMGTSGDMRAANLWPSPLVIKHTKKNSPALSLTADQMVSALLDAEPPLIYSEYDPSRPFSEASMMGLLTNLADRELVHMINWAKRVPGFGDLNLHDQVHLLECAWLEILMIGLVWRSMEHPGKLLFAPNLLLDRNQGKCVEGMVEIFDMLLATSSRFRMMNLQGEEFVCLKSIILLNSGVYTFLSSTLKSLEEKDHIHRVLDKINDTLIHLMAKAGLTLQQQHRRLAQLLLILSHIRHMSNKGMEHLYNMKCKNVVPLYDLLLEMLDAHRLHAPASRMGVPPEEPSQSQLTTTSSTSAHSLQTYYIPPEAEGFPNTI
# assay-text: Relative Binding Affinity to estrogen receptor
# condition-notes: at 0°; 3H-Estradiol=100
readout: RBA, Relative Binding Affinity to rat uterine cytosolic estrogen receptor
Answers are plain numbers.

- compound: "COc1cc2c(cc1O)CCC1C2CCC2(C)C(O)CCC12 (centres unmarked)"
  test-system: "rat uterine cytosolic estrogen receptor (Rattus norvegicus, UniProt P06211)"
  quantitative-result: 0.245

Now look at this one.
Inquiry: Which value of RBA, Relative Binding Affinity to rat uterine cytosolic estrogen receptor has been reported for CCNc1cc2c(cc1O)CCC1C2CCC2(C)C(O)CCC12 (centres unmarked) in the records?
Reply text: 0.35

---

Give IC50 for every item shown.
# Test system: tubulin
# assay-text: inhibition of tubulin polymerization in vitro (turbidity at 350 nm)
# Assay type: biochemical
# condition-notes: read-out: IC50 (concentration required to inhibit tubulin polymerization by 50%); mean ± S.D.; method of Example 1
Give bare numbers, in µM.

Before answering, review these 2 worked examples.
- compound: "COc1cc2c(cc1O)CCC1C2CCC2(C)C(O)CCC12 (stereo not shown)"
  test-system: "tubulin"
  IC50 (µM): 1.9
- compound: "C#CC1(O)CCC2C3CCc4cc(O)ccc4C3CCC21C (stereo not shown) [17-Ethynylestradiol, reference compound]"
  test-system: "tubulin"
  IC50 (µM): 10

Next compound, please.
Inquiry: Could you tell me which IC50 is on file for CC12CCC3c4cc(Br)c(O)cc4CCC3C1CCC2O (stereo not shown) ?
Reply text: 4.5

---

Please go through the items and note down their RBA, Relative Binding Affinity to rat uterine cytosolic estrogen receptor.
# test-system: rat uterine cytosolic estrogen receptor (Rattus norvegicus)
# Construct: from tissue; host or cells: rat uterine cytosol (per the result head)
# assay-text: Relative Binding Affinity to estrogen receptor
# condition-notes: at 0°; 3H-Estradiol=100

Here's what some known entries look like.
- compound: "C[C@]12CC[C@@H]3c4cc(OCC(F)(F)F)c(O)cc4/C(=N/O)C[C@H]3[C@@H]1CC[C@@H]2O"
  test-system: "rat uterine cytosolic estrogen receptor (Rattus norvegicus)"
  result: "<0.0074"
- compound: "CCOc1cc2c(cc1O)C(=NOC)CC1C2CCC2(C)C(O)CCC12 (stereo not drawn)"
  test-system: "rat uterine cytosolic estrogen receptor (Rattus norvegicus)"
  result: "<0.001"

// below: RBA, Relative Binding Affinity to rat uterine cytosolic estrogen receptor requested for another compound
Inquiry: Endpoint output: RBA, Relative Binding Affinity to rat uterine cytosolic estrogen receptor of CCOc1cc2c(cc1O)C(=NO)CC1C2CCC2(C)C(O)CCC12 (stereo not drawn) . Value?
Reply text: <0.001
